Items are presented alongside their recorded pIC50.
STUDY_TARGET: recombinant PDE4 enzyme
ASSAY_DETAILS: PDE4 [3H] cAMP Scintillation Proximity Assay (SPA)
ASSAY_CONTEXT: inhibition of PDE4; 30 nM [3H] cAMP, 1 hr at room temperature, yeast extract of recombinant PDE4 enzyme
Reminder that pIC50 means the negative base-10 logarithm of the concentration expressed in mol/L.

[
  {
    "MOL": "CCn1nc(-c2cccc(-c3cc(O)cc(C(=O)NCCCCCCCN(C)CCO)c3)c2)cc(NC(=O)Nc2c(Cl)cncc2Cl)c1=O",
    "ASSAY_RESULT": 10.43
  },
  {
    "MOL": "CCn1nc(-c2cccc(-c3cc(O)cc(C(=O)NC4CC4)c3)c2)cc(NC(=O)Nc2c(Cl)cncc2Cl)c1=O",
    "ASSAY_RESULT": 10.12
  },
  {
    "MOL": "CCn1nc(-c2cccc(-c3cccc(C(=O)NCc4ccc(O)cc4)c3)c2)cc(NC(=O)Nc2c(Cl)cncc2Cl)c1=O",
    "ASSAY_RESULT": 9.41
  }
]

Please turn your attention to the following entry.
Q: Return reported pIC50 for target or system recombinant PDE4 enzyme, item CCn1nc(-c2cccc(-c3cccc(C(=O)NCCN(C)C)c3)c2)cc(NC(=O)Nc2c(Cl)cncc2Cl)c1=O .
A: 10.33

====

STUDY_TARGET: recombinant PDE4 enzyme
ASSAY_DETAILS: PDE4 [3H] cAMP Scintillation Proximity Assay (SPA)
ASSAY_CONTEXT: inhibition of PDE4; 30 nM [3H] cAMP, 1 hr at room temperature, yeast extract of recombinant PDE4 enzyme
MEASURED_PARAMETER: pIC50
Reminder that pIC50 means the negative base-10 logarithm of the concentration expressed in mol/L.

[
  {
    "COMPOUND": "CCn1nc(-c2cccc(-c3ccc(C(=O)O)cc3)c2)cc(NC(=O)Nc2c(Cl)cncc2Cl)c1=O [Example 26]",
    "pIC50": 10.01
  },
  {
    "COMPOUND": "CCn1nc(-c2cccc(-c3cccc(CC(=O)NCCN4CCOCC4)c3)c2)cc(NC(=O)Nc2c(Cl)cncc2Cl)c1=O [Example 119]",
    "pIC50": 10.21
  }
]

Q: Provide pIC50 value for the following compound: CCn1nc(-c2cccc(-c3ccc(CC(=O)NCCN4CCCCC4)cc3)c2)cc(NC(=O)Nc2c(Cl)cncc2Cl)c1=O [Example 117]
A: 10.31

Q: Provide pIC50 value for the following compound: CCn1nc(-c2cccc(-c3cccc(C(=O)NCCN4CCCCC4)c3)c2)cc(NC(=O)Nc2c(Cl)cncc2Cl)c1=O [Example 51]
A: 9.98

====

STUDY_TARGET: recombinant PDE4 enzyme
ASSAY_DETAILS: PDE4 [3H] cAMP Scintillation Proximity Assay (SPA)
ASSAY_CONTEXT: inhibition of PDE4; 30 nM [3H] cAMP, 1 hr at room temperature, yeast extract of recombinant PDE4 enzyme
Items are presented alongside their recorded IC50.
Numeric only. Scale: nM

[
  {
    "MOL": "CCn1nc(-c2cccc(-c3cc(F)ccc3O)c2)cc(NC(=O)Nc2c(Cl)cncc2Cl)c1=O",
    "IC50 (nM)": 0.237
  },
  {
    "MOL": "CCn1nc(-c2cccc(-c3cccc(CC(=O)NC4CC4)c3)c2)cc(NC(=O)Nc2c(Cl)cncc2Cl)c1=O",
    "IC50 (nM)": 0.173
  },
  {
    "MOL": "CCn1nc(-c2cccc(-c3ccc(CC(=O)NCCCCCCCN(C)CCO)cc3)c2)cc(NC(=O)Nc2c(Cl)cncc2Cl)c1=O",
    "IC50 (nM)": 0.056
  }
]

Please turn your attention to the following entry.
Q: Provide IC50 value for the following molecule: CCn1nc(-c2cccc(-c3cccc(C(=O)NCCCCCCCN(C)CCO)c3)c2)cc(NC(=O)Nc2c(Cl)cncc2Cl)c1=O
A: 0.031
